Assay: chemical genetic growth profiling, strain panel (AID 1159580);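 also: tested at 20 µM; growth read once vehicle control cultures reached saturation at 30 °C; 1 = growth at the plate median or of vehicle wells; lower values mean less growth of the strain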
Conditions: S. cerevisiae deletion strains, growth OD, locus YGL173C, strain kem1, stronger effect = lower value
The whole screen tested about 5,500 compounds, of which about 2,000 (36%) were called active. Not shown: some 18% with an inconclusive outcome. Some of the results follow.
Assign normalized growth to each entry below.

Measured normalized growth of CCC(C)C(=O)O[C@@H]1C[C@@]2(C)[C@H](c3ccoc3)OC(=O)CC23OC2(C)O[C@]14[C@]1(C)[C@@H](CC(=O)OC)C5(C)CC1(O)[C@](O)(C5OC(=O)C1(C)OC1C)[C@@H](OC(C)=O)[C@]34O2 (some centres undefined) : 0.993 (inactive)

Measured normalized growth of CCCCCCCCCCC[C@@H](C[C@H]1OC(=O)[C@H]1CCCCCC)OC(=O)[C@@H](CC(C)C)NC=O : 1.04 (inactive)

Measured normalized growth of CN1CC(=O)N=C1N : 1.03 (inactive)

Measured normalized growth of CCC(C)C(=O)O[C@@H]1C[C@@]2(C)[C@H](c3ccoc3)OC(=O)CC23OC2(C)OC34[C@H](OC(=O)C(C)C)[C@@]3(O)[C@@H](OC(=O)C5(C)OC5C)[C@@]5(C)C[C@]3(O)[C@@](C)([C@H]5CC(=O)OC)C14O2 (some centres undefined) : 0.977 (inactive)
